observable: logP
Answers are plain numbers.

Here are 3 compounds together with their reported answers.
| smiles-repr | reported-result |
| --- | --- |
| CC(C)=CCC1(C(C)(C)C)C(=O)NC(=O)NC1=O | 2.56 |
| O=C1NC(=O)C2(CCC2)C(=O)N1 | -0.27 |
| O=C1NC(=O)C2(CCCCCCC2)C(=O)N1 | 1.79 |

Record logP per entry; entries follow.
1. CC(C)=CCC1(C(C)C)C(=O)NC(=O)NC1=O
2. O=C1NC(=O)C2(CCCCCC2)C(=O)N1

Completion:
2.23
1.36

Record logP per entry; entries follow.
1. O=C1NC(=S)NC(=O)C12CCCCC2
2. O=C1NC(=O)C2(CC2)C(=O)N1
3. CCC1(C)C(=O)NC(=O)NC1=O
4. C=CCC1(C)C(=O)NC(=O)NC1=O
5. CC1(c2ccccc2)C(=O)NC(=O)NC1=O
6. O=C1NC(=O)C2(CCCCC2)C(=O)N1
7. O=C1NC(=O)C(c2ccccc2)(c2ccccc2)C(=O)N1

Completion:
1.78
-0.53
0.08
0.36
0.91
0.91
1.96

Record logP per entry; entries follow.
1. O=C1NC(=O)C2(CCCC2)C(=O)N1
2. CCC1(CC=C(C)C)C(=O)NC(=O)NC1=O

Completion:
[0.24, 1.73]

* * *

observable: logP
One number for each entry.

| smiles-repr | reported-result |
| --- | --- |
| O=C1NC(=O)C2(CCCCCCCCCC2)C(=O)N1 | 3.15 |
| CC1(C)C(=O)NC(=O)NC1=O | -0.44 |

Moving on to the next compound.
Prompt: Report measured logP; entry is "O=C1NC(=O)C2(CCCCCCCCCCC2)C(=O)N1"
Completion: 3.51
